Cited source for all entries: PubChem BioAssay AID618

PROTOCOL DESCRIPTION: inhibitors of MT1-MMP promoter transcription, cell-based, luciferase reporter, luminescence (AID 618);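 also: actives suppress MT1-MMP promoter-driven transcription so potencies describe inhibitors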
COND: MT1-MMP promoter luciferase reporter cells
The campaign covered roughly 87,000 compounds. About 540 (0.62%) were called active. No rule for the calls is given here. This is one part of a sample in which actives are shown more often than they occur. Potency and affinity values are given separately.
Outcome codes: active, inactive

{"COMPOUND": "Cn1cnnc1SCC(=O)Nc1ccccc1", "ASSIGNED CLASS": "inactive"}
{"COMPOUND": "Cc1noc(NS(=O)(=O)c2ccc(NC(=O)CSc3nc4ccccc4[nH]3)cc2)c1C", "ASSIGNED CLASS": "inactive"}
{"COMPOUND": "COc1ccc(-c2cc3nc4n(c(=O)c3s2)CCOC4)cc1", "ASSIGNED CLASS": "inactive"}
{"COMPOUND": "Cc1ccc(-n2c(C)cc(/C=c3/sc4nc5ccccc5n4c3=O)c2C)cc1", "ASSIGNED CLASS": "inactive"}
{"COMPOUND": "COc1cccc(NC(=O)CSc2nnc(-c3ccoc3C)n2CC2CCCO2)c1 (stereo not drawn)", "ASSIGNED CLASS": "inactive"}
{"COMPOUND": "COc1cccc(N2CCN(c3ncnc4c3[nH]c3ccccc34)CC2C)c1 (stereo not drawn)", "ASSIGNED CLASS": "inactive"}
{"COMPOUND": "Cc1cc(/C=c2/sc3nc4ccccc4n3c2=O)c(C)n1-c1ccccn1", "ASSIGNED CLASS": "active"}
{"COMPOUND": "O=C(NC1=NCCS1)C1COc2ccccc2O1 (stereo not drawn)", "ASSIGNED CLASS": "active"}
{"COMPOUND": "COCCCN1C(=O)C(=O)/C(=C(/O)c2ccc(OC(C)C)cc2)C1c1cccnc1 (stereo not drawn)", "ASSIGNED CLASS": "inactive"}
{"COMPOUND": "CCOc1cccc(C(=O)Nc2nccs2)c1", "ASSIGNED CLASS": "inactive"}
{"COMPOUND": "COC(=O)c1sc(NC(=O)COc2ccc(OC)cc2)nc1C", "ASSIGNED CLASS": "inactive"}
{"COMPOUND": "COc1ccc2nc(NC(=O)C3COc4ccccc4O3)sc2c1 (stereo not drawn)", "ASSIGNED CLASS": "inactive"}
{"COMPOUND": "Nc1cccc2cnccc12", "ASSIGNED CLASS": "inactive"}
{"COMPOUND": "O=c1/c(=C\\c2cccn2-c2ccccc2)sc2nc3ccccc3n12", "ASSIGNED CLASS": "inactive"}
{"COMPOUND": "COC(=O)c1sc(NC(=O)c2ccc(OC)cc2OC)nc1C", "ASSIGNED CLASS": "active"}
{"COMPOUND": "O=C(CN1CCN(c2ccccc2)CC1)Nc1ccccc1C(F)(F)F", "ASSIGNED CLASS": "inactive"}
{"COMPOUND": "COc1cccc(N2CCN(c3ncnc4c3[nH]c3ccc(F)cc34)CC2C)c1 (stereo not drawn)", "ASSIGNED CLASS": "active"}
{"COMPOUND": "COc1ccc(C)cc1NC(=O)c1ccc(N(C)S(C)(=O)=O)cc1", "ASSIGNED CLASS": "inactive"}
{"COMPOUND": "Cc1nnc(NC(=O)C2COc3ccccc3O2)s1 (stereo not drawn)", "ASSIGNED CLASS": "inactive"}
{"COMPOUND": "COc1ccc(C(=O)Nc2cccc(C)c2)cc1", "ASSIGNED CLASS": "inactive"}
{"COMPOUND": "COc1ccc(C2C(C#N)=C(N)N3C(=C2C#N)Sc2ccccc23)cc1 (stereo not drawn)", "ASSIGNED CLASS": "inactive"}
{"COMPOUND": "O=C1CC(c2ccc(S(=O)(=O)N3CCCCC3)cc2)CN1 (stereo not drawn)", "ASSIGNED CLASS": "inactive"}
{"COMPOUND": "Cc1cc(-c2nn3c(C)nnc3s2)ccc1NC(=O)C(C)(C)C", "ASSIGNED CLASS": "inactive"}
{"COMPOUND": "O=C1[C@@H]2C(c3ccccc3Cl)=NO[C@@H]2C(=O)N1Cc1ccccc1", "ASSIGNED CLASS": "inactive"}
{"COMPOUND": "COC(=O)c1ccc(NC(=O)CSc2nncn2C)cc1", "ASSIGNED CLASS": "inactive"}
{"COMPOUND": "COc1cccc(C(=O)Nc2ccccc2)c1", "ASSIGNED CLASS": "inactive"}
{"COMPOUND": "COc1ccccc1NC(=O)c1ccc(COc2ccccc2OC)o1", "ASSIGNED CLASS": "inactive"}
{"COMPOUND": "Cc1cc2c(N)cccc2nn1", "ASSIGNED CLASS": "inactive"}
{"COMPOUND": "COc1ccc(C(=O)Nn2cnnc2)c(OC)c1", "ASSIGNED CLASS": "inactive"}
{"COMPOUND": "Cc1ccc(C(=O)CC2(O)C(=O)N(Cc3ccc4c(c3)OCO4)c3ccccc32)cc1 (stereo not drawn)", "ASSIGNED CLASS": "inactive"}
{"COMPOUND": "C=CCc1c(C)c(C#N)c2nc3ccccc3n2c1N1CCN(C)CC1", "ASSIGNED CLASS": "inactive"}
{"COMPOUND": "COc1ccccc1NC(=O)c1ccc(N)cc1", "ASSIGNED CLASS": "inactive"}
{"COMPOUND": "COc1ccc(-c2nc3n(c2Br)CCC3)cc1", "ASSIGNED CLASS": "inactive"}
{"COMPOUND": "CCc1nnc(NC(=O)CSc2nccn2-c2cccc(C)c2C)s1", "ASSIGNED CLASS": "inactive"}
{"COMPOUND": "CC(C)C(NS(=O)(=O)c1ccc(Br)s1)C(=O)O (stereo not drawn)", "ASSIGNED CLASS": "inactive"}
{"COMPOUND": "S=C(Nc1ccccc1)c1ccccn1", "ASSIGNED CLASS": "inactive"}
{"COMPOUND": "CCOC(=O)C1=C(C)N(Cc2ccccc2)C(=O)NC1c1ccc(OC)cc1 (stereo not drawn)", "ASSIGNED CLASS": "inactive"}
{"COMPOUND": "c1ccc(-c2cn3c4c(sc3n2)CCCC4)cc1", "ASSIGNED CLASS": "active"}
{"COMPOUND": "O=C(Nc1nncs1)C1COc2ccccc2O1 (stereo not drawn)", "ASSIGNED CLASS": "inactive"}
{"COMPOUND": "O=C(Nc1ncc(Cc2ccccc2)s1)C1COc2ccccc2O1 (stereo not drawn)", "ASSIGNED CLASS": "inactive"}
{"COMPOUND": "COc1ccc(CC(C(=O)Nc2cc(C)ccc2C)/C(N)=N/O)cc1 (stereo not drawn)", "ASSIGNED CLASS": "inactive"}
{"COMPOUND": "O=C(Nc1ccncc1)C1COc2ccccc2O1 (stereo not drawn)", "ASSIGNED CLASS": "inactive"}
{"COMPOUND": "Cc1cc(Oc2ccc(C(C)(C)C)cc2)nc(N2CCOCC2)n1", "ASSIGNED CLASS": "inactive"}

###

PROTOCOL DESCRIPTION: inhibitors of MT1-MMP promoter transcription, cell-based, luciferase reporter, luminescence (AID 618);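 also: actives suppress MT1-MMP promoter-driven transcription so potencies describe inhibitors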
COND: MT1-MMP promoter luciferase reporter cells
The campaign covered roughly 87,000 compounds. About 540 (0.62%) were called active. The rule behind the calls is not given here. This excerpt belongs to a sample that is enriched for actives. Entries with a potency or affinity are not part of this list.
Outcome codes: true (1) (active), false (0) (inactive)

{"COMPOUND": "CCCCNC(=O)n1c(SC)nc2ccccc21", "ASSIGNED CLASS": "false (0)"}
{"COMPOUND": "COC(=O)c1nn(-c2c(C)n(C)n(-c3ccccc3)c2=O)cc1O", "ASSIGNED CLASS": "false (0)"}
{"COMPOUND": "COc1ccc(NC(=O)C(CC(C)C)NC(=O)c2ccccc2C)cn1 (stereo unspecified)", "ASSIGNED CLASS": "false (0)"}
{"COMPOUND": "CCCCS(=O)(=O)/C=C/[C@H]1[C@H](S(=O)(=O)CCCC)[C@H]2C=C[C@@H]1C2", "ASSIGNED CLASS": "false (0)"}
{"COMPOUND": "CCC(=O)Nc1ccc2oc(-c3cccc(C)c3)nc2c1", "ASSIGNED CLASS": "true (1)"}
{"COMPOUND": "Cc1nnc2ccc(N3CCN(C(=O)c4ccccc4)CC3)nn12", "ASSIGNED CLASS": "false (0)"}
{"COMPOUND": "Nc1ccc(-c2nc3ccc(-c4nc5ccccc5o4)cc3[nH]2)cc1", "ASSIGNED CLASS": "false (0)"}
{"COMPOUND": "CCN(CC)c1ccc(NC(=O)CCCCCN2C(=O)c3ccccc3C2=O)cc1", "ASSIGNED CLASS": "false (0)"}
{"COMPOUND": "Cc1ccc(NC(=O)NC(=O)N(c2ccccc2)S(C)(=O)=O)cc1", "ASSIGNED CLASS": "false (0)"}
{"COMPOUND": "CC(=O)n1nc(-c2ccccc2)nc1NCc1ccc(F)cc1", "ASSIGNED CLASS": "false (0)"}
{"COMPOUND": "CN(C(=O)c1ccno1)c1nnc(-c2cnccn2)s1", "ASSIGNED CLASS": "false (0)"}
{"COMPOUND": "CC(=O)Nc1cc2nn(-c3ccccc3)nc2cc1Cl", "ASSIGNED CLASS": "false (0)"}
{"COMPOUND": "CC1=C(C(=O)OC(C)C)C(c2cccc(F)c2)N2C(=O)C(C)SC2=N1 (stereo unspecified)", "ASSIGNED CLASS": "false (0)"}
{"COMPOUND": "CCOc1ccccc1NC(=O)C1C2C=CC(C2)C1C(=O)O (stereo unspecified)", "ASSIGNED CLASS": "false (0)"}
{"COMPOUND": "COc1ccccc1N(CC(=O)NC1CCCC1)C(=O)CCC(=O)Nc1cc(C)on1", "ASSIGNED CLASS": "false (0)"}
{"COMPOUND": "Cc1cnc(C)c(N2CCC(C(=O)NC(C)c3cccs3)CC2)n1 (stereo unspecified)", "ASSIGNED CLASS": "false (0)"}
{"COMPOUND": "CCOc1ccccc1Nc1nc(N)nc(CN(C)C2CCCCC2)n1", "ASSIGNED CLASS": "false (0)"}
{"COMPOUND": "CCOC(=O)c1ccc(NC(=O)CN2CCN(CCN=CC3=C(O)CC(C)(C)CC3=O)CC2)cc1", "ASSIGNED CLASS": "false (0)"}
{"COMPOUND": "CCOC(=O)c1nn(-c2cc(C(=O)OC)cc(C(=O)OC)c2)cc1O", "ASSIGNED CLASS": "false (0)"}
{"COMPOUND": "Cc1ccc(Nc2cc(C)nn2-c2nc(C)cc(=O)[nH]2)cc1", "ASSIGNED CLASS": "true (1)"}
{"COMPOUND": "CC(=O)N(Cc1ccc(F)cc1)C1=C(NCc2ccccc2)C(=O)c2ccccc2C1=O", "ASSIGNED CLASS": "true (1)"}
{"COMPOUND": "Cc1cc2nc(-c3ccc(NC(=O)C(C)C)cc3)oc2cc1C", "ASSIGNED CLASS": "false (0)"}
{"COMPOUND": "COc1ccc(C)cc1S(=O)(=O)N(C)CC(=O)Nc1ccc2c(c1)OCO2", "ASSIGNED CLASS": "false (0)"}
{"COMPOUND": "Nc1ccc2oc(-c3cccs3)nc2c1", "ASSIGNED CLASS": "false (0)"}
{"COMPOUND": "COc1ccc(-c2noc(CCC(=O)O)n2)cc1", "ASSIGNED CLASS": "false (0)"}
{"COMPOUND": "CCCS(=O)(=O)C(=C(Nc1ccc(OC)cc1)Nc1ccc(OC)cc1)S(=O)(=O)CCC", "ASSIGNED CLASS": "false (0)"}
{"COMPOUND": "COCCCNS(=O)(=O)c1ccc2c(c1)CCN2C(C)=O", "ASSIGNED CLASS": "false (0)"}
{"COMPOUND": "Cc1ccc(Nc2cc(C)nn2-c2nc(C)cc(C)n2)cc1", "ASSIGNED CLASS": "false (0)"}
{"COMPOUND": "CNC(=O)CCc1nc(-c2ccc(C(C)(C)C)cc2)no1", "ASSIGNED CLASS": "false (0)"}
{"COMPOUND": "Cc1ccc2oc(-c3ccco3)nc2c1", "ASSIGNED CLASS": "false (0)"}
{"COMPOUND": "O=C(Nc1ccc2c(c1)OCO2)C1CCCCN1S(=O)(=O)c1ccccc1 (stereo unspecified)", "ASSIGNED CLASS": "false (0)"}
{"COMPOUND": "COc1ccc(C(c2sc3nc(C)nn3c2O)N2CC(C)OC(C)C2)cc1OC (stereo unspecified)", "ASSIGNED CLASS": "false (0)"}
{"COMPOUND": "CCCC(=O)Nc1ccc(-c2nc3cc(C)c(C)cc3o2)cc1", "ASSIGNED CLASS": "false (0)"}
{"COMPOUND": "CCOC(=O)c1cc(C(=O)OCC)cc(-n2cc(O)c(C(=O)OCC)n2)c1", "ASSIGNED CLASS": "false (0)"}
{"COMPOUND": "Cc1ccc(-c2nc3cc(NS(=O)(=O)c4ccc(C)cc4)ccc3o2)cc1", "ASSIGNED CLASS": "false (0)"}
{"COMPOUND": "CC(=O)c1ccc(N=Cc2c(O)n(-c3cc(Cl)ccc3N3CCOCC3)c(=O)c3ccccc23)cc1", "ASSIGNED CLASS": "false (0)"}
